Recorded measurements of MIC, one per entry
- Tested on: Staphylococcus aureus
- assay.comment: Antibacterial activity against Staphylococcus aureus ATCC 6538 after 24 hrs by MTT method
- Format: functional
- conditions: ATCC 6538, 24 h

CCOC(=O)/C(=C\Nc1ccc(Br)cc1)c1ccc(Cl)cc1 | > 50 µg/mL
CCOC(=O)/C(=C\Nc1ccc(C)cc1)c1ccc(Cl)cc1 | > 50 µg/mL

Exercise: May I ask what MIC has been recorded for CCOC(=O)/C(=C\Nc1ccc(O)cc1)c1ccc(OC)cc1 ?
Solution: 7.9 µg/mL

---

- Tested on: Escherichia coli
- assay.comment: Antibacterial activity against Escherichia coli ATCC 35218 after 24 hrs by MTT method
- Format: functional
- conditions: ATCC 35218, 24 h
Recorded measurements of MIC, one per entry

CCOC(=O)/C(=C/Nc1ccc(Br)cc1)c1ccc(Cl)cc1 | > 50 µg/mL

Exercise: May I ask what MIC has been recorded for CCOC(=O)/C(=C\Nc1cc(OC)cc(OC)c1)c1ccc(OC)cc1 ?
Solution: > 50 µg/mL

Exercise: May I ask what MIC has been recorded for CCOC(=O)/C(=C\Nc1ccc(C)cc1)c1ccc(Cl)cc1 ?
Solution: > 50 µg/mL

---

Recorded measurements of log10 MIC, one per entry
- Test system: Staphylococcus aureus
- assay.comment: Antibacterial activity against Staphylococcus aureus ATCC 6538 after 24 hrs by MTT method
- Assay type: functional
- conditions: ATCC 6538, 24 h
Please be aware that the numbers have been log10-transformed from MIC in µg/mL.

Exercise: Under Staphylococcus aureus: log10 MIC value of NC[C@H]1O[C@H](O[C@H]2[C@H](O)[C@@H](O[C@H]3O[C@H](CO)[C@@H](O)[C@H](N)[C@H]3O)[C@H](N)C[C@@H]2N)[C@H](O)[C@@H](O)[C@@H]1O [KANAMYCIN] ?
Solution: 0.00

Exercise: Under Staphylococcus aureus: log10 MIC value of CCOC(=O)/C(=C/Nc1cc(Cl)cc(Cl)c1)c1ccc(Cl)cc1 ?
Solution: 0.04

Exercise: Under Staphylococcus aureus: log10 MIC value of CCOC(=O)/C(=C/Nc1cc(OC)cc(OC)c1)c1ccc(OC)cc1 ?
Solution: 1.20

Exercise: Under Staphylococcus aureus: log10 MIC value of CCOC(=O)/C(=C/Nc1cc(F)cc(F)c1)c1ccc(OC)cc1 ?
Solution: 1.36

Exercise: Under Staphylococcus aureus: log10 MIC value of CCOC(=O)/C(=C/Nc1cc(F)cc(F)c1)c1ccc(Cl)cc1 ?
Solution: 0.28

Exercise: Under Staphylococcus aureus: log10 MIC value of CCOC(=O)/C(=C/Nc1ccc(C)cc1)c1ccc(Cl)cc1 ?
Solution: -0.05

Exercise: Under Staphylococcus aureus: log10 MIC value of CCOC(=O)/C(=C/Nc1cc(Cl)cc(Cl)c1)c1ccc(OC)cc1 ?
Solution: 1.31

Exercise: Under Staphylococcus aureus: log10 MIC value of CCOC(=O)/C(=C\Nc1cc(OC)cc(OC)c1)c1ccc(OC)cc1 ?
Solution: 1.64

Exercise: Under Staphylococcus aureus: log10 MIC value of CCOC(=O)/C(=C/Nc1ccc(O)cc1)c1ccc(OC)cc1 ?
Solution: 0.58

---

- Test system: Escherichia coli
- assay.comment: Antibacterial activity against Escherichia coli ATCC 35218 after 24 hrs by MTT method
- Format: functional
- conditions: ATCC 35218, 24 h
Recorded measurements of MIC, one per entry

Answered cases to consult:
CCOC(=O)/C(=C\Nc1cc(Cl)cc(Cl)c1)c1ccc(Cl)cc1 | > 50 µg/mL
CCOC(=O)/C(=C/Nc1cc(Cl)cc(Cl)c1)c1ccc(OC)cc1 | 42.2 µg/mL
CCOC(=O)/C(=C/Nc1cc(F)cc(F)c1)c1ccc(Cl)cc1 | > 13.5 µg/mL
CCOC(=O)/C(=C/Nc1ccc(O)cc1)c1ccc(OC)cc1 | > 50 µg/mL
CCOC(=O)/C(=C\Nc1ccc(O)cc1)c1ccc(OC)cc1 | > 50 µg/mL
CCOC(=O)/C(=C\Nc1ccc(Cl)cc1)c1ccc(Cl)cc1 | > 50 µg/mL
CCOC(=O)/C(=C\Nc1ccc(Br)cc1)c1ccc(Cl)cc1 | > 50 µg/mL
CCOC(=O)/C(=C\Nc1cc(Cl)cc(Cl)c1)c1ccc(OC)cc1 | > 50 µg/mL
CCOC(=O)/C(=C/Nc1ccc(Br)cc1)c1ccc(OC)cc1 | > 50 µg/mL
CCOC(=O)/C(=C/Nc1ccc(Cl)cc1)c1ccc(Cl)cc1 | 42.5 µg/mL

Exercise: May I ask what MIC has been recorded for CCOC(=O)/C(=C\Nc1ccccc1Cl)c1ccc(Cl)cc1 ?
Solution: 42.5 µg/mL

Exercise: May I ask what MIC has been recorded for CCOC(=O)/C(=C/Nc1cc(Cl)cc(Cl)c1)c1ccc(Cl)cc1 ?
Solution: > 50 µg/mL

Exercise: May I ask what MIC has been recorded for NC[C@H]1O[C@H](O[C@H]2[C@H](O)[C@@H](O[C@H]3O[C@H](CO)[C@@H](O)[C@H](N)[C@H]3O)[C@H](N)C[C@@H]2N)[C@H](O)[C@@H](O)[C@@H]1O [KANAMYCIN] ?
Solution: 3.9 µg/mL

Exercise: May I ask what MIC has been recorded for CCOC(=O)/C(=C/Nc1ccc(C)cc1)c1ccc(Cl)cc1 ?
Solution: > 50 µg/mL

Exercise: May I ask what MIC has been recorded for CCOC(=O)/C(=C\Nc1cc(F)cc(F)c1)c1ccc(Cl)cc1 ?
Solution: > 50 µg/mL

---

Recorded measurements of MIC, one per entry
- System: Escherichia coli
- assay.comment: Antibacterial activity against Escherichia coli ATCC 35218 after 24 hrs by MTT method
- Type: functional
- conditions: ATCC 35218, 24 h

Answered cases to consult:
CCOC(=O)/C(=C\Nc1ccc(Br)cc1)c1ccc(OC)cc1 | > 50 µg/mL
CCOC(=O)/C(=C/Nc1cc(OC)cc(OC)c1)c1ccc(OC)cc1 | 41.5 µg/mL
CCOC(=O)/C(=C/Nc1cc(Br)c(OC)c(Br)c1)c1ccc(OC)cc1 | > 50 µg/mL
CCOC(=O)/C(=C/Nc1ccccc1Cl)c1ccc(Cl)cc1 | 38.8 µg/mL
CCOC(=O)/C(=C\Nc1cc(Br)c(OC)c(Br)c1)c1ccc(OC)cc1 | > 50 µg/mL

Exercise: May I ask what MIC has been recorded for CCOC(=O)/C(=C\Nc1cc(F)cc(F)c1)c1ccc(OC)cc1 ?
Solution: > 50 µg/mL

Exercise: May I ask what MIC has been recorded for CCOC(=O)/C(=C/Nc1cc(F)cc(F)c1)c1ccc(OC)cc1 ?
Solution: > 50 µg/mL
